# Tested On: Metabotropic glutamate receptor 7 (Rattus norvegicus) (UniProt P35400)
# Sequence (P35400 whole entry): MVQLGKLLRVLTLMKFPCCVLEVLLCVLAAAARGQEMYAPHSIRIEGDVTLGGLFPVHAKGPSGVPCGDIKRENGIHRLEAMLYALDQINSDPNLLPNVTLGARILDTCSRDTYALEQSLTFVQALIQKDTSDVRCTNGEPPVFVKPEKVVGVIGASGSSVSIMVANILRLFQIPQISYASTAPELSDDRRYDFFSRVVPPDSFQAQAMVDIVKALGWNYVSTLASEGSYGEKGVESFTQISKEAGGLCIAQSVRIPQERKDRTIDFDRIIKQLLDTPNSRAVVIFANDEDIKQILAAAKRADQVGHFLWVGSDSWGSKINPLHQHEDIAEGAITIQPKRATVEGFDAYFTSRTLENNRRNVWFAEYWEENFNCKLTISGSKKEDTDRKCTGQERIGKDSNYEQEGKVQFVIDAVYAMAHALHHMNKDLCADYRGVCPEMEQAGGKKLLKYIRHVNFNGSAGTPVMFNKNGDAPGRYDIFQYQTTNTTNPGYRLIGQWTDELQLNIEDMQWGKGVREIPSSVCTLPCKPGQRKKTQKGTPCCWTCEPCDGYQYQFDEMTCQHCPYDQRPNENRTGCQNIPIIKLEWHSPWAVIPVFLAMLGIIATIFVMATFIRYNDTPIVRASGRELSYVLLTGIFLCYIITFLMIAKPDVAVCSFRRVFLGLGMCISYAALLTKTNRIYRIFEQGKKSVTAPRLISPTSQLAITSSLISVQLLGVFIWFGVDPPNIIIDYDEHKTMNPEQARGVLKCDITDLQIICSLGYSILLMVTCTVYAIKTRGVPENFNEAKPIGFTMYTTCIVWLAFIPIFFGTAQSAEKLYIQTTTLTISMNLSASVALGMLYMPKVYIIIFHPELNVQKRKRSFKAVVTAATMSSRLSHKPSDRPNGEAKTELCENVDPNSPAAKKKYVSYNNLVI
# Assay Method Text: Negative allosteric modulation of rat mGlu7 receptor expressed in HEK cells co-expressing Galpha15 assessed as minimum L-AP4 response by measuring reduction in calcium mobilization incubated for 142 secs prior to glutamate addition and after 120 secs treated with L-AP4 and measured after 40 secs by Fluo-4 AM dye based fluorescence assay relative to L-AP4
# Assay type: functional, cell-based
# Set-up: scale not given: the % may be the effect or the level left
# Condition Set: filed as negative allosteric modulator, time 302.0 sec
The following compounds are listed with their measured Activity values.
Response body: numeric value in %, unit text excluded.

Solved cases below.
{"columns": ["Smiles Entry", "Parameter Measured", "Observed Result"],
 "data": [
  ["CCOC(=O)c1cnc2ccsc2c1N1CCN(c2ccccc2OC)CC1", "Activity", 24],
  ["CCOC(=O)c1cnc2c(OC)cc(OC)cc2c1N1CCN(c2ccccc2OC)CC1", "Activity", 3.9],
  ["CCOC(=O)c1cnc2c(OC)cc(OC)cc2c1-c1ccc(-c2ccccc2OCC)nc1", "Activity", 5],
  ["CCOC(=O)c1cnc2c(OC)cccc2c1N1CCN(c2ccccc2OCC)CC1", "Activity", 8.7]
]}

### Prompt Could you share which Activity value was measured for "CCOC(=O)c1cnc2c(OC)cccc2c1-c1ccc(-c2ccccc2OC)nc1" ?
### Response 6.5

### Prompt Could you share which Activity value was measured for "CCOC(=O)c1cnc2c(OC)cccc2c1N1CCN(c2ccccc2SC)CC1" ?
### Response 4.7

### Prompt Could you share which Activity value was measured for "CCOC(=O)c1cnc2c(OC)cccc2c1-c1ccc(-c2ccccc2OCC)nc1" ?
### Response 6.3

====

# Tested On: Metabotropic glutamate receptor 8 (Homo sapiens, UniProt O00222)
# Sequence (O00222 whole entry): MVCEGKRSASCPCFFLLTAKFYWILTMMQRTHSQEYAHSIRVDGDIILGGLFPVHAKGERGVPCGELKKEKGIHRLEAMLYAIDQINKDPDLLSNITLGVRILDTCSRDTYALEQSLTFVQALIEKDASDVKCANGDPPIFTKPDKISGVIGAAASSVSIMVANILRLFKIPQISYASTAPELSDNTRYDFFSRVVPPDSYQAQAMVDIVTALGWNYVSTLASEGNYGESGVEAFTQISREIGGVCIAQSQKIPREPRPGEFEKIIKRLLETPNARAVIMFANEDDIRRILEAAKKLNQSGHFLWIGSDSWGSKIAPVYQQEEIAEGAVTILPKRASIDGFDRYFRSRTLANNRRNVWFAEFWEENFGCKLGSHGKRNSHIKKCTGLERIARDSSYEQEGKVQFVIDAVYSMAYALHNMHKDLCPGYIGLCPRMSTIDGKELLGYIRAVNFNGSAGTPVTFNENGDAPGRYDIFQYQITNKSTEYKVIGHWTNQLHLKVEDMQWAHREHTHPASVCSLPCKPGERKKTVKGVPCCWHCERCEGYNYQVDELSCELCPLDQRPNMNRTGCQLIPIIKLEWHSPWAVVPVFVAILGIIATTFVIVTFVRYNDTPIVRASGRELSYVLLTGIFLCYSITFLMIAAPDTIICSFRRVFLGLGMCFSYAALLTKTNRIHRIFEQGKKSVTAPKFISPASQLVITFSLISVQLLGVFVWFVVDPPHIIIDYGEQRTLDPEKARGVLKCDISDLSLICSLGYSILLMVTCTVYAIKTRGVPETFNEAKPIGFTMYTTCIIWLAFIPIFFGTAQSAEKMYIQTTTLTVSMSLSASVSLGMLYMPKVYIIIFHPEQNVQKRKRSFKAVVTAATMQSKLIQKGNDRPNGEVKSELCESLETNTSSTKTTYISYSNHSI
# Assay Method Text: Negative allosteric modulation of mGlu8 receptor (unknown origin)
pIC50: −log10 of the molar value.
Parameter Measured: pIC50

### Prompt Could you share which pIC50 value was measured for "CCOC(=O)c1cnc2c(OC)cccc2c1N1CCN(c2ccccc2OC)CC1" ?
### Response < 4.52

====

The following molecules are listed with their measured Activity values.
# Tested On: Metabotropic glutamate receptor 7 (Rattus norvegicus) (UniProt P35400)
# Assay Method Text: Negative allosteric modulation of rat mGlu7 receptor expressed in HEK cells co-expressing Galpha15 assessed as minimum L-AP4 response by measuring reduction in calcium mobilization incubated for 142 secs prior to glutamate addition and after 120 secs treated with L-AP4 and measured after 40 secs by Fluo-4 AM dye based fluorescence assay relative to L-AP4
# Type: functional, cell-based
# Parameters: scale not given: the % may be the effect or the level left
# Condition Set: filed as negative allosteric modulator, time 302.0 sec

### Prompt Could you share which Activity value was measured for "CCOC(=O)c1cnc2c(OC)cccc2c1C1=CCN(c2ccccc2OC)CC1" ?
### Response 9.6%

### Prompt Could you share which Activity value was measured for "CCOC(=O)c1cnc2c(OC)cccc2c1N1CCN(c2ccccc2OC(C)C)CC1" ?
### Response 6.5%

### Prompt Could you share which Activity value was measured for "CCOC(=O)c1cnc2c(OC)cc(OC)cc2c1-c1ccc(-c2ccccc2OC)nc1" ?
### Response 3.5%

### Prompt Could you share which Activity value was measured for "CCOC(=O)c1cnccc1N1CCN(c2ccccc2OC)CC1" ?
### Response 13%

### Prompt Could you share which Activity value was measured for CCOC(=O)c1cnc2c(OC)cccc2c1N1CCN(c2ccccc2OC)CC1C (racemic) ?
### Response 6.1%

### Prompt Could you share which Activity value was measured for "CCOC(=O)c1cnc2c(OC)cccc2c1N1CCN(c2ccccc2C#N)CC1" ?
### Response 14%

====

# Tested On: Metabotropic glutamate receptor 7 (Rattus norvegicus)
# Sequence (P35400 whole entry): as the sequence (P35400 whole entry) above
# Assay Method Text: Negative allosteric modulation of rat mGlu7 receptor expressed in HEK cells co-expressing Galpha15 assessed as minimum L-AP4 response by measuring reduction in calcium mobilization incubated for 142 secs prior to glutamate addition and after 120 secs treated with L-AP4 and measured after 40 secs by Fluo-4 AM dye based fluorescence assay relative to L-AP4
# Type: functional, cell-based
# Design: scale not given: the % may be the effect or the level left
# Condition Set: filed as negative allosteric modulator, time 302.0 sec
Parameter Measured: Activity (%)
Response body: numeric value in %, unit text excluded.

Solved cases below.
{"columns": ["Compound", "Observed Result"],
 "data": [
  ["CCOC(=O)c1cnc2c(OC)cccc2c1-c1ccc(-c2ccccc2OC(C)C)nc1", 5.8],
  ["CCOC(=O)c1cnc2c(OC)cccc2c1N1CCN(c2ccccc2OC)C(C)C1 (racemic)", 8.6],
  ["CCOC(=O)c1cnc2c(OC)cccc2c1N(C)CCN(C)c1ccccc1OC", 9.6],
  ["CCOC(=O)c1cnc2c(OC)cccc2c1N1CCN(c2ccccc2OC)CC1", 5.6]
]}

Next, consider the following compound.
### Prompt Could you share which Activity value was measured for "CCOC(=O)c1cnc2c(OC)cccc2c1-c1cnc(-c2ccccc2OC)nc1" ?
### Response 12

====

# Tested On: Metabotropic glutamate receptor 7 (Rattus norvegicus) (UniProt P35400)
# Assay Method Text: Negative allosteric modulation of rat mGlu7 receptor expressed in HEK cells co-expressing Galpha15 assessed as minimum L-AP4 response by measuring reduction in calcium mobilization incubated for 142 secs prior to glutamate addition and after 120 secs treated with L-AP4 and measured after 40 secs by Fluo-4 AM dye based fluorescence assay relative to L-AP4
# Assay type: functional, cell-based
# Parameters: scale not given: the % may be the effect or the level left
# Condition Set: filed as negative allosteric modulator, time 302.0 sec
Parameter Measured: Activity (%)
Response body: numeric value in %, unit text excluded.

{"columns": ["Compound", "Unit Of Measure", "Activity"],
 "data": [
  ["CCOC(=O)c1cnc2c(OC)cccc2c1N1CCN(c2cc(F)ccc2OC)CC1", "%", 15],
  ["CCOC(=O)c1cnc2c(OC)cccc2c1-c1cnc(-c2ccccc2OC)cn1", "%", 5.1],
  ["CCOC(=O)c1cnc2c(OC)cccc2c1N1CCN(c2ccc(OC)cc2OC)CC1", "%", 9],
  ["CCOC(=O)c1cnc2c(OC)cccc2c1-c1ccc(-c2ccccc2OC)cc1", "%", 4.2]
]}

Next, consider the following compound.
### Prompt Could you share which Activity value was measured for "CCOC(=O)c1cnc2c(OC)cccc2c1-c1ccn(Cc2ccccc2OC)c1" ?
### Response 6.5

====

The following compounds are listed with their measured pIC50 values.
# Tested On: Metabotropic glutamate receptor 7 (Rattus norvegicus)
# Assay Method Text: Negative allosteric modulation of rat mGlu7 receptor expressed in HEK cells co-expressing Galpha15 assessed as reduction in calcium mobilization incubated for 142 secs prior to glutamate addition and after 120 secs treated with L-AP4 and measured after 40 secs by Fluo-4 AM dye based fluorescence assay
pIC50: −log10 of the molar value.

Solved cases below.
{"columns": ["Compound", "pIC50"],
 "data": [
  ["CCOC(=O)c1cnc2c(OC)cccc2c1N1CCN(c2ccccc2Cl)CC1", "< 4.52"],
  ["CCOC(=O)c1cnc2c(OC)cccc2c1N1CC2(CN(c3ccccc3OC)C2)C1", "< 4.52"]
]}

Next, consider the following compound.
### Prompt Could you share which pIC50 value was measured for CCOC(=O)c1cnc2c(OC)cccc2c1N1CC2CN(c3ccccc3OC)CC2C1 (stereo not drawn) ?
### Response < 5.00

====

# Tested On: Metabotropic glutamate receptor 4 (Homo sapiens, UniProt Q14833)
# Sequence (Q14833 whole entry): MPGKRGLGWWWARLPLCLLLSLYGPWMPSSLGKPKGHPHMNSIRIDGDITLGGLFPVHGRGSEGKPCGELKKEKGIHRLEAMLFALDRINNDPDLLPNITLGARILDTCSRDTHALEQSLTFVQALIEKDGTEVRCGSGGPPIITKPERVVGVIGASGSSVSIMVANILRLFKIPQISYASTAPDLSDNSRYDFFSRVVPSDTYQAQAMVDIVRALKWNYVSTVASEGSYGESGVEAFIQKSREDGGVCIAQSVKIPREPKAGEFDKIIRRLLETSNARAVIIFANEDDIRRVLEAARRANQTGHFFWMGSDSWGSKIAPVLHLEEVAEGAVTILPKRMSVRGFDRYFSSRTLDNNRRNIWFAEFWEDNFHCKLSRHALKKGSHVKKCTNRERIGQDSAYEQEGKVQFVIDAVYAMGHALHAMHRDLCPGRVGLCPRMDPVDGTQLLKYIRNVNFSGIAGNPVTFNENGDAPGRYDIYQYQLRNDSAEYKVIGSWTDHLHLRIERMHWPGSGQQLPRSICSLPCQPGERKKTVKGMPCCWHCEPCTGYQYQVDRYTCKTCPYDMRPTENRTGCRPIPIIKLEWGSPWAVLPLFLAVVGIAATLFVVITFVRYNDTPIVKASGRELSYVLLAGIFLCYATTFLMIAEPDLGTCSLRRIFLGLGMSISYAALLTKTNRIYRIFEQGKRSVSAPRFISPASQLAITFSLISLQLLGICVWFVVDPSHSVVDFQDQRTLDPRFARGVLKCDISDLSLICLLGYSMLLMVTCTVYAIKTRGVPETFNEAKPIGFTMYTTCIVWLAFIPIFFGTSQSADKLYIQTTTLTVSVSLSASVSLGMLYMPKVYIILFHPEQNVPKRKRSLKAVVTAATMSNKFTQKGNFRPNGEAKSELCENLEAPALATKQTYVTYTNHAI
# Assay Method Text: Negative allosteric modulation of mGlu4 receptor (unknown origin)
Parameter Measured: IC50

### Prompt Give IC50 (Metabotropic glutamate receptor 4 (Homo sapiens, UniProt Q14833)) of the following molecule: "CCOC(=O)c1cnc2c(OC)cccc2c1N1CCN(c2ccccc2OC)CC1"
### Response > 30 µM

====

The following molecules are listed with their measured IC50 values.
# Tested On: Metabotropic glutamate receptor 7 (Rattus norvegicus)
# Assay Method Text: Negative allosteric modulation of rat mGlu7 receptor expressed in HEK cells co-expressing Galpha15 assessed as reduction in calcium mobilization incubated for 142 secs prior to glutamate addition and after 120 secs treated with L-AP4 and measured after 40 secs by Fluo-4 AM dye based fluorescence assay

Solved cases below.
{"columns": ["Molecule", "IC50"],
 "data": [
  ["CCOC(=O)c1cnc2c(OC)cccc2c1N1CCN(c2cncs2)CC1", "> 30 µM"],
  ["CCOC(=O)c1ccc2c(OC)cccc2c1N1CCN(c2ccccc2OC)CC1", "> 30 µM"],
  ["CCOC(=O)c1cnc2c(OC)cccc2c1C1CC2CC(C1)N2c1ccccc1OC (stereo not given)", "> 10 µM"],
  ["CCOC(=O)c1cnc2ccccc2c1N1CCN(c2ccccc2OC)CC1", "> 30 µM"],
  ["CCOC(=O)c1cnc2c(OC)cccc2c1N1CCN(c2ccccc2C)CC1", "> 10 µM"],
  ["CCOC(=O)c1cnc2c(OC)cccc2c1N1CCN(c2cccs2)CC1", "> 30 µM"],
  ["CCOC(=O)c1cnc2c(OC)cccc2c1N1CCN(c2ccccc2OC(F)(F)F)CC1", "> 30 µM"],
  ["CCOC(=O)c1cnc2c(OC)cccc2c1C1C2CC1CN(c1ccccc1OC)C2 (stereo not given)", "> 30 µM"]
]}

### Prompt Could you share which IC50 value was measured for "CCOC(=O)c1cnc2c(OC)cccc2c1N1CCN(c2ccnn2C)CC1" ?
### Response > 30 µM

### Prompt Could you share which IC50 value was measured for "CCOC(=O)c1cnc2c(OC)cccc2c1C1CCN(c2ccccc2OC)CC1" ?
### Response > 10 µM
